Field: IC50. Provide a value for each of the compounds that follow.
# Target Or System: Bromodomain-containing protein 4 (Homo sapiens, UniProt O60885)
# Assay Procedure: Inhibition of BRD4 BD2 (unknown origin) by TR-FRET assay

Q: Which IC50 value belongs to `C[C@@H]1CN(S(C)(=O)=O)CCN1Cc1cc2c(=O)n(C)cc(-c3cc(Cl)nn3CC3CCOCC3)c2o1` ?
Ans: 3600 nM

Q: Please answer likewise for `C[C@@H]1CN(S(C)(=O)=O)CCN1Cc1cc2c(=O)n(C)cc(-c3cccc(NS(C)(=O)=O)c3)c2o1`
Ans: 1500 nM

Q: And for `C[C@@H]1CN(S(C)(=O)=O)CCN1Cc1cc2c(=O)n(C)cc(-c3cc(NS(C)(=O)=O)ccc3OCC3CC3)c2o1` ?
Ans: 20 nM

Q: What about this compound? `C[C@@H]1CN(S(C)(=O)=O)CCN1Cc1cc2c(=O)n(C)cc(-c3nc(Cl)c(Cl)n3CC3CCOCC3)c2o1`
Ans: 8800 nM

Q: Next up: `CC(=O)Nc1cc(-c2cn(C)c(=O)c3cc(CN4CCN(S(C)(=O)=O)C[C@H]4C)oc23)ccn1`
Ans: 650 nM

Q: Consider next the compound `C[C@@H]1CN(S(C)(=O)=O)CCN1Cc1cc2c(=O)n(C)cc(-c3nccnc3OCC3CC3)c2o1` in the same way.
Ans: 1600 nM

Q: Next compound up: `C[C@@H]1CN(S(C)(=O)=O)CCN1Cc1cc2c(=O)n(C)cc(-c3nc(Cl)cn3CC3CCOCC3)c2o1`
Ans: > 10000 nM
